measured-target: Keap1 Kelch domain (321-609) / TAMRA-labeled 16mer NRF2 peptide (ETGE motif) (Homo sapiens, UniProt Q14145)
Construct: the Kelch domain (321-609) of Keap1 is used
Sequence (Q14145 321-609): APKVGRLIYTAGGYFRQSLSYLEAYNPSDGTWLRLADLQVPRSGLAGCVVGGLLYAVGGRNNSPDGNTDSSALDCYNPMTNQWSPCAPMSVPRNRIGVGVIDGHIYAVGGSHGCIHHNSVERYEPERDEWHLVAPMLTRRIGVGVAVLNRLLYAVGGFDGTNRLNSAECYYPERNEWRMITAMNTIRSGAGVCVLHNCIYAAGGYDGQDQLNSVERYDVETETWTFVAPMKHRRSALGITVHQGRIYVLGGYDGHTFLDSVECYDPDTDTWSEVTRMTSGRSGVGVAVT
protocol-description: NRF2-Keap1 FP Assay (Keap1 Kelch fluorescence polarization)
condition-info: 20 nM Keap1 (321-609), 8 nM Tamra labeled peptide
result-type: IC50

Using the record for Cn1cc(C2CC2c2c(C(=O)O)cnn2-c2cccc(-c3cccc(OCCC(C)(C)C)c3)c2)nn1 (centres unmarked) , report its IC50. 10 to 100 nM

For the compound shown here, CCN1CCN(Cc2cccc(-c3cccc(-n4ncc(C(=O)O)c4[C@@H]4C[C@H]4c4cn(C)nn4)c3)c2)S(=O)(=O)c2ccccc21 , give the reported IC50. 10 to 100 nM

May I ask what IC50 has been recorded for O=C(O)c1cnn(-c2cccc(-c3cccc(C(=O)N(CC4CCCC4)CC4CC4)c3F)c2)c1C1CC1 ? 10 to 100 nM

Report IC50 for CC(Oc1cccc(-c2cccc(-n3ncc(C(=O)O)c3C3CC3c3cn(C)nn3)c2)c1)c1ccccc1 (centres unmarked) please. 10 to 100 nM

Any idea what its IC50 is? The compound is O=C(O)c1cnn(-c2cccc(-c3cccc(C(=O)N4CCCCCC4)c3)c2)c1C1CC1 100 to 1000 nM

Consider the compound Cn1cc([C@@H]2C[C@H]2c2c(C(=O)O)cnn2-c2cccc(-c3cccc(OCC4CCCC(C(F)(F)F)C4)c3)c2)nn1 (mixture of isomers) and give its measured IC50. 100 to 1000 nM

I have this compound here, CC1CC(C)CN(C(=O)c2cccc(-c3cccc(-n4ncc(C(=O)O)c4[C@@H]4C[C@H]4c4cn(C)nn4)c3)c2F)C1 (mixture of isomers) , and I need its recorded IC50. 10 to 100 nM

I am curious: what IC50 value has been reported for C[C@H]1Cc2ccccc2S(=O)(=O)N(Cc2cccc(-c3cccc(-n4ncc(C(=O)O)c4[C@@H]4C[C@H]4c4cn(C)nn4)c3)c2)C1 ? 10 to 100 nM

Could you share which IC50 value was measured for O=C(O)c1cnn(-c2cccc(-c3cccc(-n4ncc5c4C(C4CC4)CC5)c3)c2)c1C1CC1 (centres unmarked) ? 100 to 1000 nM

Which IC50 is listed for Cn1cc([C@H]2C[C@@H]2c2c(C(=O)O)cnn2-c2cccc(-c3cccc(-n4ncc5c4C(C)(C)CC5)c3)c2)nn1 (stereo in doubt) ? 10 to 100 nM

Endpoint output: IC50 of O=C(O)c1cnn(-c2cccc(-c3cccc(C4CCCO4)c3)c2)c1C1CC1 (centres unmarked) . Value? 1000 to 10000 nM

Entry C[C@H](Oc1cccc(-c2cccc(-n3ncc(C(=O)O)c3[C@@H]3C[C@H]3c3cn(C4CCOCC4)nn3)c2)c1)C1CCCCC1 has what IC50? 10 to 100 nM

Query: IC50; subject: C[C@H](Oc1cccc(-c2cccc(-n3ncc(C(=O)O)c3[C@@H]3C[C@H]3c3cn(-c4ccccc4)nn3)c2)c1)C1CCCCC1 (racemic) 10 to 100 nM

Data request, read-out IC50, for O=C(O)c1cnn(-c2cccc(-c3cccc(C(=O)N4CCCC5(CCCC5)C4)c3F)c2)c1C1CC1 10 to 100 nM
